- target.of.assay: Human IgG (Sigma-Aldrich Corporation) (human)
- assay.info: Biacore SPR; protein on NTA chip, human IgG injected; reference repeated from Table 2
property.name: Kd

The recorded Kd for pPG (SEQ ID NO: 2) (designed binder) AYRLILNGRTLRGETTTEAVDAATAERVFRQYANDNGVDGEWTYDDATRTFTVTERPEVIDASELTPAVTGGGGCADDDDDDHHHHHH is 0.384 nM
